Each record here notes measured MC1R cAMP EC50.
target: human melanocortin 1 receptor (human, UniProt Q01726 1-317); experiment: cell-based or functional assay
Sequence (Q01726 whole entry): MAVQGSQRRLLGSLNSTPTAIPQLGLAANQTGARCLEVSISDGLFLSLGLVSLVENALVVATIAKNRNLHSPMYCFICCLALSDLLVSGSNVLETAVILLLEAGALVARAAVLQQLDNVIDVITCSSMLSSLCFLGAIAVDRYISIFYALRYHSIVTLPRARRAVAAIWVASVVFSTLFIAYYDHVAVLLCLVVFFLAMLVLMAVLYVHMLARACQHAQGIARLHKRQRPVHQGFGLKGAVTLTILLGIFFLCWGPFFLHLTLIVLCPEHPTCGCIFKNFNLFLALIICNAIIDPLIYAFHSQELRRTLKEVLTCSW
Positions of bridges follow the written chain, without caps; N, C: chain ends. Non-standard residues stand in square brackets, D forms with d. Phe(3,4-Cl2) = N[C@@H](Cc1ccc(Cl)c(Cl)c1)C(=O)O; 2Nal = N[C@@H](Cc1ccc2ccccc2c1)C(=O)O
Output spec: scalar in nM, unitless text.

Illustrative cases are given below, each with its answer.
cyclo(CPH[dF]HWCAH[dK][dK]R) (disulfide 1-7; SMILES C[C@@H]1NC(=O)[C@@H]2CSSC[C@H](NC(=O)[C@H](CCCNC(=N)N)NC(=O)[C@@H](CCCCN)NC(=O)[C@@H](CCCCN)NC(=O)[C@H](Cc3c[nH]cn3)NC1=O)C(=O)N1CCC[C@H]1C(=O)N[C@@H](Cc1c[nH]cn1)C(=O)N[C@H](Cc1ccccc1)C(=O)N[C@@H](Cc1c[nH]cn1)C(=O)N[C@@H](Cc1c[nH]c3ccccc13)C(=O)N2) [Chem. 121] | 189
cyclo(C[dV]H[dF]RWC[dV]H[dF]RW) (disulfide 1-7; SMILES CC(C)[C@H]1NC(=O)[C@@H]2CSSC[C@H](NC(=O)[C@H](Cc3c[nH]c4ccccc34)NC(=O)[C@H](CCCNC(=N)N)NC(=O)[C@@H](Cc3ccccc3)NC(=O)[C@H](Cc3c[nH]cn3)NC1=O)C(=O)N[C@H](C(C)C)C(=O)N[C@@H](Cc1c[nH]cn1)C(=O)N[C@H](Cc1ccccc1)C(=O)N[C@@H](CCCNC(=N)N)C(=O)N[C@@H](Cc1c[nH]c3ccccc13)C(=O)N2) [Chem. 34] | 2.6
cyclo(CAH[dF]R[Phe(3,4-Cl2)]CAKKKW) (disulfide 1-7; SMILES C[C@@H]1NC(=O)[C@@H]2CSSC[C@H](NC(=O)[C@H](Cc3ccc(Cl)c(Cl)c3)NC(=O)[C@H](CCCNC(=N)N)NC(=O)[C@@H](Cc3ccccc3)NC(=O)[C@H](Cc3c[nH]cn3)NC1=O)C(=O)N[C@@H](C)C(=O)N[C@@H](CCCCN)C(=O)N[C@@H](CCCCN)C(=O)N[C@@H](CCCCN)C(=O)N[C@@H](Cc1c[nH]c3ccccc13)C(=O)N2, also called c[c[Cys-Ala-His-D-Phe-Arg-3,4-DiCl-Phe-Cys]-Ala-Lys-Lys-Lys-Trp]) [Chem. 66] | 0.22

Problem: // fetch MC1R cAMP EC50 given entry cyclo(CH[dF]RWRCH[dF]RWR) (disulfide 1-7; SMILES N=C(N)NCCC[C@@H]1NC(=O)[C@H](Cc2c[nH]c3ccccc23)NC(=O)[C@H](CCCNC(=N)N)NC(=O)[C@@H](Cc2ccccc2)NC(=O)[C@H](Cc2c[nH]cn2)NC(=O)[C@@H]2CSSC[C@H](NC1=O)C(=O)N[C@@H](Cc1c[nH]cn1)C(=O)N[C@H](Cc1ccccc1)C(=O)N[C@@H](CCCNC(=N)N)C(=O)N[C@@H](Cc1c[nH]c3ccccc13)C(=O)N[C@@H](CCCNC(=N)N)C(=O)N2, also called c[c[Cys-His-D-Phe-Arg-Trp-Arg-Cys]-His-D-Phe-Arg-Trp-Arg]) [Chem. 68]
Result: 4.87

Problem: // fetch MC1R cAMP EC50 given entry cyclo(CAH[dF]QWCAK[dK]KW) (disulfide 1-7; SMILES C[C@@H]1NC(=O)[C@@H]2CSSC[C@H](NC(=O)[C@H](Cc3c[nH]c4ccccc34)NC(=O)[C@H](CCC(N)=O)NC(=O)[C@@H](Cc3ccccc3)NC(=O)[C@H](Cc3c[nH]cn3)NC1=O)C(=O)N[C@@H](C)C(=O)N[C@@H](CCCCN)C(=O)N[C@H](CCCCN)C(=O)N[C@@H](CCCCN)C(=O)N[C@@H](Cc1c[nH]c3ccccc13)C(=O)N2, also called c[c[Cys-Ala-His-D-Phe-Gln-Trp-Cys]-Ala-Lys-D-Lys-Lys-Trp]) [Chem. 57]
Result: 10.4

Problem: // fetch MC1R cAMP EC50 given entry cyclo(CAH[dF]R[2Nal]CAKKKW) (disulfide 1-7; SMILES C[C@@H]1NC(=O)[C@@H]2CSSC[C@H](NC(=O)[C@H](Cc3ccc4ccccc4c3)NC(=O)[C@H](CCCNC(=N)N)NC(=O)[C@@H](Cc3ccccc3)NC(=O)[C@H](Cc3c[nH]cn3)NC1=O)C(=O)N[C@@H](C)C(=O)N[C@@H](CCCCN)C(=O)N[C@@H](CCCCN)C(=O)N[C@@H](CCCCN)C(=O)N[C@@H](Cc1c[nH]c3ccccc13)C(=O)N2, also called c[c[Cys-Ala-His-D-Phe-Arg-2-Nal-Cys]-Ala-Lys-Lys-Lys-Trp]) [Chem. 79]
Result: 1.16
